Entries annotated with measured melting point

Would you please look over these solved cases?
O=C(NCC1CCN(CCc2ccccn2)CC1)c1ccc2nonc2c1    149 to 151 °C
O=S(=O)(NCCCCOc1ccc(-n2cnnn2)cc1)c1cccc2nsnc12    142 to 143 °C
O=c1[nH]c2[nH]c3ccccc3c2c2ccccc12    > 310 °C

Let us examine a further case.
**Query** Given "O=C(Nc1ccc(Cl)c(Cl)c1)c1c(O)c2ccccc2oc1=O" , state its recorded melting point.
**Result** 227 to 228 °C

----------
measured attribute: melting point

Would you please look over these solved cases?
CCOC(=O)c1c(C)nc2ccc(NCCCN3CCC(OC(c4ccccc4)c4ccccc4)CC3)nn12    117 to 119 °C
CC(=O)N(Cc1nc(-c2ccccc2)c(-c2ccccc2)o1)c1cccc(OCC(=O)O)c1    75 to 80 °C
CNC(=C[N+](=O)[O-])NCCSCc1cc2ccc(CN(C)C)cc2o1    113 to 114 °C
CCOC(=O)C1=C(C)NC(C)=C(C(=O)OCC)C1c1cc(Br)ccc1F    118 to 119 °C
CCOCc1nc2c(N)nc(C)c(C)c2n1NCc1cccnc1    147 to 149 °C
O=C1CCC(c2ccccc2)(c2ccccc2)[C@@H]2CN(C(=O)Cc3ccsc3)C[C@H]12 (racemic)    224 °C
COC(=O)C[C@@H]1C[C@@H](COc2ccc(-c3ccc(C(=N)NC(=O)OCc4ccccc4)cc3)cc2)NC1=O    160 to 164 °C
CN(C)c1ccc2cc(-c3ccnc(SCCO)c3C#N)ccc2c1    210 to 212 °C

Let us examine a further case.
**Query** Given "CC(=O)Nc1nc2c(Oc3cc(-c4ccc(C(F)(F)F)cc4NC(=O)[C@@H]4CCN4CC(C)C)ncn3)cccc2s1" , state its recorded melting point.
**Result** 174 to 175 °C

----------
Entries annotated with measured melting point

CC(C)(C)c1cc(/C=C/C(=O)COc2ccccc2)cc(C(C)(C)C)c1O    100 to 102 °C
Cc1cc(SCc2ccc(OCc3ccc(F)cc3)cc2)ccc1OCC(=O)O    154 to 155 °C

**Query** Given "C=CCOC(=O)c1ccc(OC(=O)C2CC3=C(C2)C(C)(C)CCC3(C)C)cc1" , state its recorded melting point.
**Result** 48 to 50 °C

**Query** Given "O=C1CC(=O)[C@H](CC2CCCCC2)N1" , state its recorded melting point.
**Result** 165 to 167 °C

**Query** Given "Fc1cccc2nc(S)oc12" , state its recorded melting point.
**Result** 232 to 234 °C

**Query** Given "CCCOc1cc(C)c(C=CC(C)=CC=CC(C)=CC(=O)OCC)c(C)c1C" , state its recorded melting point.
**Result** 200 to 201 °C

**Query** Given "COc1cccc(OCCCSCCC(=O)O)c1" , state its recorded melting point.
**Result** 53 to 55 °C

**Query** Given "Cc1cc(Cn2[nH]c(N)cc2=O)ccc1Cl" , state its recorded melting point.
**Result** 131 °C

----------
Entries annotated with measured melting point

Would you please look over these solved cases?
N#CCC(=O)Nc1ccc(-n2nc(C(F)(F)F)cc2C(F)(F)F)cc1    140 to 143 °C
C[C@H](c1ccccc1)N1C(=O)N(Cc2ccccc2)[C@@H]2C(=O)OC[C@@H]21    163 to 164 °C
CC1(C)Oc2cc3nonc3cc2C(N2CCC(Br)CC2=O)C1O (stereo not given)    250 to 253 °C
CCOC(=O)C=Cc1ccc(N)cc1C    73 to 74 °C
CC(c1ccccc1)C(C(=O)c1ccccc1)n1cncn1 (stereo not given)    166 to 168 °C

Let us examine a further case.
**Query** Given "CC[C@H](C)[C@H](NC(=O)OC(C)(C)C)C(=O)N[C@H](C(=O)N[C@@H](Cc1ccc2ccccc2c1)[C@@H](O)[C@@H](O)CC(C)C)[C@@H](C)CC" , state its recorded melting point.
**Result** 168 to 169 °C
